# assayInfo: Plasma pharmacokinetics of lestaurtinib
# measurementSetup: human, po, 35 mg/m2
readout: AUC(0-inf)

Please report AUC(0-inf) for the following compound: C[C@]12O[C@H](C[C@]1(O)CO)n1c3ccccc3c3c4c(c5c6ccccc6n2c5c31)CNC4=O [lestaurtinib, Lestaurtinib]
41300 ng·h/mL

###

# assayInfo: clinical
# measurementSetup: human, in vivo, po, 85 mg/m2
readout: half-life (h)
State just the number; it will be interpreted in h.

Read the entry C[C@]12O[C@H](C[C@]1(O)CO)n1c3ccccc3c3c4c(c5c6ccccc6n2c5c31)CNC4=O [lestaurtinib, Lestaurtinib] and write its reported half-life.
3.9
